Biological target: DRB3*0101 (Homo sapiens, UniProt P01903+P79483)
Experiment: biochemical
MEASURED_PROPERTY: pIC50
Units for pIC50: none; it is -log10 of a concentration expressed in mol/L.

Ask: May I ask what pIC50 has been recorded for CC(C)C[C@H](NC(=O)[C@H](CCCNC(=N)N)NC(=O)[C@H](Cc1c[nH]cn1)NC(=O)[C@H](CC(=O)O)NC(=O)[C@H](CS)NC(=O)[C@H](CC(C)C)NC(=O)[C@H](CCC(N)=O)NC(=O)[C@@H](NC(=O)[C@H](Cc1ccc(O)cc1)NC(=O)[C@@H](NC(=O)[C@H](CCC(=O)O)NC(=O)[C@H](CCCNC(=N)N)NC(=O)[C@H](CC(C)C)NC(=O)[C@H](CCCCN)NC(=O)[C@@H](N)CC(C)C)C(C)C)[C@@H](C)O)C(=O)O ?
Result: 6.13

---

Biological target: DRB1*1302 (Homo sapiens, UniProt P01903+P01911, A100E/A169T/K41T/L162R/M171V/P40S/Q125H/Q178H/Q39Y/Q99D/R42S/S66N/T262R/V115G/W38E/Y61H)
Sequence (P01903 26-254 limits assumed, other chains not shown): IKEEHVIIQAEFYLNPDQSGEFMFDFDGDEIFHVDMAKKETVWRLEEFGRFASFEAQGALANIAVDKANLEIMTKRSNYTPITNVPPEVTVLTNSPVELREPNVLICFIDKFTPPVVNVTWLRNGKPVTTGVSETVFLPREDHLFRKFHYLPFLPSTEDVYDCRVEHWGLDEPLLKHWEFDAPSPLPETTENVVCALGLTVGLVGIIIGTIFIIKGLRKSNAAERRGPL
Assay: biochemical
Assay type: binding
MEASURED_PROPERTY: IC50
Please answer using a numeric value trailed by its unit.

Here are 4 compounds together with their reported answers.
CSCC[C@H](NC(=O)[C@@H](NC(=O)[C@H](CCC(N)=O)NC(=O)[C@H](Cc1ccccc1)NC(=O)[C@H](CC(N)=O)NC(=O)[C@H](CCCCN)NC(=O)[C@@H]1CCCN1C(=O)[C@@H](N)CC(N)=O)[C@@H](C)O)C(=O)N1CCC[C@H]1C(=O)NCC(=O)N[C@H](C(=O)N[C@@H](Cc1ccccc1)C(=O)N[C@@H](CCC(N)=O)C(=O)N[C@H](C(=O)N[C@H](C(=O)O)[C@@H](C)O)[C@@H](C)O)[C@@H](C)O 2390 nM
CC[C@H](C)[C@H](NC(=O)[C@H](C)NC(=O)[C@H](CC(N)=O)NC(=O)[C@H](C)N)C(=O)N[C@@H](Cc1ccccc1)C(=O)N[C@@H](CCCCN)C(=O)N[C@@H](CC(C)C)C(=O)N[C@H](C(=O)N[C@@H](Cc1ccc(O)cc1)C(=O)N[C@@H](CCC(N)=O)C(=O)N[C@@H](CC(N)=O)C(=O)N[C@@H](CCCCN)C(=O)N[C@H](C(=O)N[C@H](C(=O)N[C@@H](CCCCN)C(=O)N[C@H](C(=O)N[C@@H](CCC(N)=O)C(=O)O)C(C)C)C(C)C)C(C)C)[C@@H](C)O 11 nM
CC[C@H](C)[C@H](NC(=O)[C@H](C)NC(=O)[C@H](C)NC(=O)[C@H](C)NC(=O)[C@@H](N)CCC(=O)O)C(=O)N[C@@H](Cc1ccccc1)C(=O)N[C@@H](CCSC)C(=O)N[C@H](C(=O)N[C@@H](C)C(=O)N[C@H](C(=O)N1CCC[C@H]1C(=O)N1CCC[C@H]1C(=O)NCC(=O)N[C@H](C(=O)N[C@@H](C)C(=O)O)[C@@H](C)O)[C@@H](C)O)[C@@H](C)O 2640 nM
CC[C@H](C)[C@H](NC(=O)[C@H](CCC(=O)O)NC(=O)CNC(=O)[C@@H](NC(=O)[C@@H](NC(=O)[C@@H](NC(=O)[C@H](CCC(N)=O)NC(=O)[C@H](Cc1ccccc1)NC(=O)[C@@H](NC(=O)CNC(=O)[C@@H]1CCCN1C(=O)[C@H](CCSC)NC(=O)[C@@H](NC(=O)[C@H](CCC(N)=O)NC(=O)[C@@H](N)Cc1ccccc1)[C@@H](C)O)[C@@H](C)O)[C@@H](C)O)[C@@H](C)O)[C@@H](C)O)C(=O)O 7040 nM

Now look at this entry.
Ask: Query: IC50; subject: CC[C@H](C)[C@H](NC(=O)[C@H](C)NC(=O)[C@H](CC(N)=O)NC(=O)[C@H](CO)NC(=O)[C@H](C)NC(=O)[C@H](CC(C)C)NC(=O)[C@H](CCCNC(=N)N)NC(=O)[C@H](CC(C)C)NC(=O)[C@H](CC(=O)O)NC(=O)[C@H](CCCNC(=N)N)NC(=O)[C@H](CCCNC(=N)N)NC(=O)[C@H](Cc1c[nH]cn1)NC(=O)[C@H](Cc1ccccc1)NC(=O)[C@H](Cc1ccc(O)cc1)NC(=O)[C@@H](N)CCSC)C(=O)O
Result: 4.9 nM

# credit: paper PMC3794980
